- TARGET OF ASSAY: T1, human VIP (human)
- T1 construct: also called Vasoactive Intestinal Peptide
- T1 peptide: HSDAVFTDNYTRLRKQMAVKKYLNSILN
- ASSAY COMMENT: SPR, Ab immobilised
The following binders are shown together with reported kon values.
MEASUREMENT KIND: kon (M⁻¹ s⁻¹)

# BINDER, MEASUREMENT KIND, NUMBER
measured = [
    ("anti-PACAP antibody Ab19 (antibody, human IgG1, kappa, N297A, V domains shown, full-length rabbit/human chimeric antibody) VH: QSVEASGGRLVTPGTPLTLTCTVSGFSLSSATMNWVRQAPGKGLEWIGLIGGNDERYYASWAKGRFTISKTSSTTVDLKMTSPTTEDTATYFCARGGGEFFIWGPGTLVTVSS VL: AQVLTQTPSSVSAAVGGTVTINCQSSESVYTNDRLSWYQQKPGQPPKLLIYEASKLASGVPPRFSGSGSGTQFTLTISDLECDDAATYYCAGAYSTSIHGFGGGTEVVVKR", "kon", 280000),
    ("anti-PACAP antibody Ab12.H (antibody, human IgG1, kappa, N297A, V domains shown, humanized form of Ab12, full length) VH: EVQLVESGGGLVQPGGSLRLSCAASGFSLSSYAMGWVRQAPGKGLEWIGDISTYGTTDYASWVYGRFTISRDNSKNTVYLQMNSLRAEDTAVYFCARDYWLSLWGQGTLVTVSS VL: AAQLTQSPSTLSASVGDRVTITCQSSQSVYDNNALAWYQQKPGKAPKLLIYAASTLASGVPSRFSGSGSGTEFTLTISSLQPDDFATYYCLGGYYDPADNAFGGGTKVEIKR", "kon", 280000),
    ("anti-PACAP antibody Ab8 (antibody, human IgG1, kappa, N297A, V domains shown, full-length rabbit/human chimeric antibody) VH: LEQSGGGAEGGLVKPGGSLELCCKASGFSLTTSHWMCWVRQAPGKGLNWIGCISAGSGDADYATWVDAQFTLSRDIDQNTGCLQLNSLTPADTAMYYCTINFELWGQGTLVTVSS VL: AQVLTQTPSSVSAAVGGTVTINCQSSPSVYSSYLSWFQQKPGQPPKFLIYEASKLASGVPSRFSGSGSGTQFTLTISGVQCSDAATYYCLGAYDCGRTDCHAFGGGTEVVVKR", "kon", 480000),
    ("anti-PACAP antibody Ab5 (antibody, human IgG1, kappa, N297A, V domains shown, full-length rabbit/human chimeric antibody) VH: QSVEESGGRLVTPGTPLTLTCTVSGFSLSSYAMIWVRQAPGKGLEWIGIIYDNGDTYYASWAKGRFTISKTSTTVYLKIASPTTEDTATYFCAREPGSTTQNDLWGQGTLVTVSS VL: DVVMTQTPASVSEPVGGTVTIKCQASENIYNSLLWYQQKPGQPPKLLIYRASTLASGVSSRFKGSGSGTEFTLTISDLECADAATYYCQNYYNIWTNGAAFGGGTEVVVKR", "kon", 120000),
    ("anti-PACAP antibody Ab12 (antibody, human IgG1, kappa, N297A, V domains shown, full-length rabbit/human chimeric antibody) VH: QSVEESGGRLVTPGTPLTLTCTASGFSLSSYAMGWVRQAPGKGLEWIGDISTYGTTDYASWVYGRFTISRTSTTVTLKMTSLTTEDTATYFCARDYWLSLWGQGTLVTVSS VL: AAVLTQTPSPVSAAVGGTVTIKCQSSQSVYDNNALAWYQQKPGQPPKLLIYAASTLASGVPSRFSGSGSGTEFTLTISGVQCDDAATYYCLGGYYDPADNAFGGGTEVVVKR", "kon", 290000),
    ("anti-PACAP antibody Ab2 (antibody, human IgG1, kappa, N297A, V domains shown, full-length rabbit/human chimeric antibody) VH: QSVEESGGRLVTPGTPLTLTCTVSGFSLSGAAMNWVRQAPGKGLEWIGVIGNSGSTYYASWAKGRFTISKTSSTTVDLKMTSPTTEDTATYFCARGGGEFFIWGQGTLVTVSS VL: AQVLTQTPSPVSAAVGGTVTINCQSSESVYKNNYLSWYQQKPGQPPKFLIYQASNLADGVPSRFKGSGSGTQFTLTISDLECDDAATYYCAGGYSTYMSGFGGGTEVVVKR", "kon", 580000),
    ("anti-PACAP antibody Ab17 (antibody, human IgG1, kappa, N297A, V domains shown, full-length rabbit/human chimeric antibody) VH: QSVEESGGRLVTPGTPLTLTCTVSGFSLSSAAMNWVRQAPGKGLEWIGIFDPYSSTYYASWAKGRFTISKTSSTTVDLKMTSPTTEDTATYFCARGGGEFFIWGPGTLVTVSS VL: AQVLTQTPSSVSAAVGGTVTINCQSSQSVYKNKYLSWYQQKVGQPPKFLIYQASNLASGVPSRFKGSGSGTQFTLTISDLECDDAATYYCAGGYSGNMVDFGGGTEVVVKR", "kon", 310000),
    ("anti-PACAP antibody Ab13 (antibody, human IgG1, kappa, N297A, V domains shown, full-length rabbit/human chimeric antibody) VH: QSVEESGGRLVTPGTPLTLTCTVSGFSLSSAAMNWVRQAPGKGLEWIGIIDNTAGTYYAPWAKGRFTISKTSSTTVDLKMTSPTTEDTATYFCARGGGEFFIWGPGTLVTVSS VL: AQVLTQTPSSVSAAVGGTVTINCQSSQSVHDGSYLSWYQQKPGQPPNFLIYQASNLASGVPSRFKGSGSGTQFTLTISDLECDDAATYYCAGGYSSNICGFGGGTEVVVKR", "kon", 320000),
    ("anti-PACAP antibody Ab7 (antibody, human IgG1, kappa, N297A, V domains shown, full-length rabbit/human chimeric antibody) VH: QSVEESGGRLVTPGTPLTLTCTASGIDLSGYAMGWVRQAPGKGLEWIGDISTYGTTDYASWVNGRFTISRTSTTVTLKMTSLTTEDTATYFCARDYWLSLWGPGTLVTVSS VL: AAVLTQTPSPVSAAVGGTVTIKCQSSQSVYDNNALAWYQQKPGQPPKLLIYAASTLASGVPSRFKGSGSGTQFTLTINGVQCDDAATYYCLGGYDDPADNAFGGGTEVVVKR", "kon", 260000),
    ("anti-PACAP antibody Ab1 (antibody, human IgG1, kappa, N297A, V domains shown, full-length rabbit/human chimeric antibody) VH: QSVEESGGRLVTPGTPLTLTCTVSGFSLSSAVMNWVRQAPGKGLEWIGSIVASGTTYYASWANGRFTISKTSSTTMDLKMTSPTTEDTATYFCARGGGEFFIWGPGTLVTVSS VL: DPVMTQTPSSTSAAVGGTVTISCQSSESVYSNYLSWYQQKPGQPPNFLIYQASNLASGVPSRFKGSGSGTQFTLTITDLECDDAATYYCAGGYSENIVGFGGGTEVVVKR", "kon", 250000),
]
